# ASSAY_NOTES: qHTS assay for measurement of the activity of small molecule inhibitors on Zika virus induced Caspase-3 activity in human astrocytoma cells (AID 1224859)
# SETUP_CONDITIONS: SNB-19 ZIKV-induced caspase-3/7, luminescence, 6 h; series mostly up to 45.7 µM
Active and inactive are the calls of the source. Calls come from the whole dose curve; as a rule, active = well fitted inhibition curve with a large enough effect; inconclusive = small, poorly fitted or top-dose-only effect; inactive = no such curve, though single readings can be large or run the other way.
Outcome codes: active, inactive

# COMPOUND, DISCRETE_LABEL
rows = [
    ("CC1(C)C(N(O)C(=O)Nc2ccc(Cl)cc2)N(c2ccc(Cl)cc2)C(=O)N1CC(=O)NN=CC=Cc1ccc([N+](=O)[O-])o1 (stereo not given)", "inactive"),
    ("CC(NCCc1ccc(O)cc1)C(O)c1ccc(O)cc1 (stereo not given)", "inactive"),
    ("Oc1ccc(C=Cc2cc(O)cc(O)c2)cc1", "active"),
    ("COc1ccnc(CS(=O)c2nc3ccc(OC(F)F)cc3[nH]2)c1OC (stereo not given)", "inactive"),
    ("Cc1ccc(NC(=O)c2cccc(N(C)C)c2)cc1NC(=O)c1ccc(O)cc1", "inactive"),
    ("CCCCCCCCCCCCCC(=O)N[C@H](CO)[C@H](O)c1ccc([N+](=O)[O-])cc1", "inactive"),
    ("C=C1[C@H](n2cnc3c(=O)[nH]c(N)nc32)C[C@H](O)[C@H]1CO", "inactive"),
    ("Cc1ccc(NC(=O)Nc2cc(C(F)(F)F)ccc2F)cc1Nc1ccc2c(c1)NC(=O)C2=Cc1ccc[nH]1", "inactive"),
    ("CCCCn1c(=O)n(Cc2ccccc2F)c(=O)c2[nH]c(Cc3ccc(NC(C)=O)cc3)nc21", "inactive"),
    ("O=C(O)c1ccc(O)c2ncc(N3CCOCC3)cc12", "inactive"),
    ("CN[C@@H]1CN(c2ccc3c(=O)c(C(=O)O)cn(-c4nccs4)c3n2)C[C@@H]1OC", "inactive"),
    ("CN(C)c1ccccc1CN1CCCN(Cc2ccccc2N(C)C)C1c1ccncc1", "inactive"),
    ("Oc1cc(O)cc(C=Cc2ccc(O)c(O)c2)c1", "active"),
    ("CCNC(=O)Nc1ccc(Oc2ncnc(N)c2C=NOC)cc1Cl", "inactive"),
    ("Cc1ccc2c(c1)C(=O)[C@]1(O)CCN(c3ccccc3)C1=N2", "inactive"),
    ("O=C(Nc1ccccc1)Nc1ccc(-c2ccc(C(=O)[C@H]3CCC[C@H]3C(=O)O)cc2)cc1", "inactive"),
    ("Cc1c(C(=O)Nc2ccc(N3C[C@@H](C)O[C@@H](C)C3)nc2)cccc1-c1ccc(OC(F)(F)F)cc1", "inactive"),
    ("CNC(=O)c1cc(COc2nnc(Nc3ccc(Cl)cc3)c3ccoc23)ccn1", "inactive"),
    ("O=C(c1ccc(F)c(F)c1Nc1ccc(I)cc1F)N1CC(O)([C@H]2CCCCN2)C1", "inactive"),
    ("CN(C)CCOc1cc(-c2cn[nH]c2)ccc1NC(=O)C1COc2ccccc2O1 (stereo not given)", "inactive"),
]

====

# ASSAY_NOTES: Quantitative High-Throughput drug screen in 47 multiple myeloma cell lines against the NCATS MIPE library collection: JJN3_DSMZ cell viability assay (AID 1918966; note: nearly all actives have a fitted effect of over 50% in size)
# SETUP_CONDITIONS: JJN3 myeloma cells viability, CellTiter-Glo ATP, 48 h; series mostly up to 45.8 µM
Results filed as inconclusive are left out. The source made the active and inactive calls. Calls follow the shape of the dose curve; as a rule, active = well fitted cell-killing curve with a large enough effect; inconclusive = small, poorly fitted or top-dose-only effect, or effect the other way; inactive = no such curve, though single readings can be large or run the other way.
Outcome codes: active, inactive

# MOLECULE, DISCRETE_LABEL
measured = [
    ("CC1=C[C@@H]2[C@@H]([C@@H](O)C[C@@]3(C)[C@H]2C[C@@H](C)[C@]3(O)C(=O)CO)[C@@]2(C)Cc3cnn(-c4ccccc4)c3C=C12", "active"),
    ("Cc1cc(C(C)Nc2ccccc2)c2nc(N3CCOCC3)cc(=O)n2c1 (stereo unspecified)", "inactive"),
    ("CC[C@H](C=C[C@@H](C)[C@H]1CC[C@H]2[C@@H]3CC=C4C[C@@H](O)CC[C@]4(C)[C@@H]3CC[C@]12C)C(C)C", "inactive"),
    ("Cc1csc(-c2nnc(Nc3ccc(Oc4ncccc4-c4ccnc(N)n4)cc3)c3ccccc23)c1", "active"),
    ("Cc1ccc(NC(=O)c2cccc(N(C)C)c2)cc1NC(=O)c1ccc(O)cc1", "active"),
    ("O[C@@H](COc1cccc2ncccc12)CN1CCN(C2c3ccccc3[C@@H]3[C@H](c4ccccc42)C3(F)F)CC1 (stereo partly specified)", "active"),
    ("CC[C@H]1OC(=O)[C@H](C)[C@@H](O[C@H]2C[C@@](C)(OC)[C@@H](O)[C@H](C)O2)[C@H](C)[C@@H](O[C@@H]2O[C@H](C)C[C@H](N(C)C)[C@H]2O)[C@](C)(O)C[C@H](C)C(=NOCOCCOC)[C@H](C)[C@@H](O)[C@]1(C)O", "active"),
    ("CN1N=C(N)c2cn([C@@H]3O[C@H](COP(=O)(O)O)[C@@H](O)[C@@H]3O)c3ncnc1c23", "active"),
    ("CN1CCC(COc2cnc(-c3cccc(Cn4nc(-c5cccc(C#N)c5)ccc4=O)c3)nc2)CC1", "active"),
    ("N=C1SC(=Cc2ccc(-c3ccc4c(c3)C(=O)NC4=O)o2)C(=O)N1c1ccc(Br)cc1", "active"),
    ("Cc1cc(-c2ncc(CC(=O)Nc3ccc(-c4cnccn4)cn3)cc2C)ccn1", "active"),
    ("O=C(Nc1ccc(OC(F)(F)F)cc1)c1sccc1NCc1ccnc2ccccc12", "active"),
    ("COc1c(C)c2c(c(O)c1CC=C(C)CCC(=O)O)C(=O)OC2", "active"),
    ("CCOC(=O)[C@H](CCc1ccccc1)N[C@@H](C)C(=O)N1CCCC1C(=O)O (stereo partly specified)", "inactive"),
    ("Cn1cnc(-c2cc3nccc(Oc4ccc(NC(=S)NC(=O)Cc5ccccc5)cc4F)c3s2)c1", "active"),
    ("N#CC(c1ccc(Cl)cc1)c1c(Cl)cc(-n2ncc(=O)[nH]c2=O)cc1Cl (stereo unspecified)", "active"),
    ("CCn1c(-c2nonc2N)nc2cncc(CNC3CCNCC3)c21", "active"),
    ("Cc1c(C(=O)Nc2ccc(N3C[C@@H](C)O[C@@H](C)C3)nc2)cccc1-c1ccc(OC(F)(F)F)cc1", "active"),
    ("COc1nc(C)cnc1NS(=O)(=O)c1cccnc1-c1ccc(-c2nnco2)cc1", "active"),
    ("CC(C)CN(C[C@@H](O)[C@H](Cc1ccccc1)NC(=O)O[C@H]1CO[C@H]2OCC[C@H]21)S(=O)(=O)c1ccc(N)cc1", "active"),
    ("O=c1[nH]c(=O)n([C@H]2C[C@@H](O)[C@@H](CO)O2)cc1C(F)(F)F", "inactive"),
    ("C=CC[N+]1([C@H]2C[C@H]3[C@@H]4CC[C@H]5C[C@H](O)[C@@H](N6CCOCC6)C[C@]5(C)[C@@H]4CC[C@]3(C)[C@H]2OC(C)=O)CCCC1", "active"),
    ("CCCCCCCCCCCCCC(=O)N[C@H](CO)[C@H](O)c1ccc([N+](=O)[O-])cc1", "active"),
    ("CN(C)S(=O)(=O)c1ccc2c(c1)C(=Cc1cc3c([nH]1)CCCC3)C(=O)N2", "active"),
    ("CCOC(=O)c1c(CSc2ccccc2)n(C)c2cc(Br)c(O)c(CN(C)C)c12", "active"),
    ("Cc1cc(OCCCS(C)(=O)=O)cc(C)c1-c1cccc(COc2ccc3c(c2)OC[C@H]3CC(=O)O)c1", "active"),
    ("C[C@@H](N)c1ccc(C(=O)Nc2ccnc3[nH]ccc23)cc1", "active"),
    ("c1ccc(-c2oc3ncnc(NC[C@@H]4CCCO4)c3c2-c2ccccc2)cc1", "active"),
    ("Nc1nc(Cl)nc2c1ncn2[C@@H]1O[C@H](CO)[C@@H](O)[C@H]1F", "active"),
    ("Cc1ccc(S(=O)(=O)Nc2nc3ccccc3nc2Nc2ccc3nsnc3c2)cc1", "active"),
    ("CCCCC[C@H](O)C=C[C@H]1[C@H](O)CC(=O)[C@H]1CCCCCCC(=O)O", "active"),
    ("OCCn1cc(-c2ccc3c(c2)CCC3=NO)c(-c2ccncc2)n1", "inactive"),
    ("Cc1cc2c(cc1C1(c3ccc(C(=O)O)cn3)CC1)C(C)(C)CCC2(C)C", "active"),
    ("Cc1ccc(C(=O)N(CCCN)[C@@H](c2nc3cc(Cl)ccc3c(=O)n2Cc2ccccc2)C(C)C)cc1", "active"),
    ("Cc1ccc2c(c1)C(=O)[C@]1(O)CCN(c3ccccc3)C1=N2", "active"),
    ("COc1ccc2ccc(=O)oc2c1CC=C(C)C", "active"),
]
